Each recorded value in this set is attributed to patent US12415785B2.

# Target entity: human STING (WT) (Homo sapiens (Human), UniProt Q86WV6, H232R)
# Sequence (Q86WV6 other isoform, or with tags, fused parts or gaps, stated change not applied): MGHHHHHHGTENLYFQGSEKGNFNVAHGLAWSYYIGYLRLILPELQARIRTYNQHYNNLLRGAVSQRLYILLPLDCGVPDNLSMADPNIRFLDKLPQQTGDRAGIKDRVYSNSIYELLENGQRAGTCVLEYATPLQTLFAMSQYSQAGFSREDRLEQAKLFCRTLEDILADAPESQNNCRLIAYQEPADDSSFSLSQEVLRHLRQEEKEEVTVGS
# Run description: Differential scanning fluorimetry (DSF), huSTING (WT)
# Assay type: binding
# Cond: 2 μM protein, compound 100 μM; Tm with ligand minus Tm of protein alone (1% DMSO); read-out: DSF huSTING (WT) ΔTm (° C.)
Readout kind: ΔTm at 100 µM (°C)

Before answering, review these 4 worked examples.
Prompt line: What value of measured ΔTm at 100 µM is listed for COc1c(C(N)=O)ccc2c1nc(-c1cccc(Br)c1C(=O)O)n2CCn1c(-c2cccc(Br)c2C(=O)O)nc2c(OC)c(C(N)=O)ccc21 ?
Response line: 2.04

Prompt line: Consider the compound shown here: NC(=O)c1ccc2c(c1)nc(-c1ccccc1-c1nn[nH]n1)n2CCn1c(-c2ccccc2-c2nnn[nH]2)nc2cc(C(N)=O)ccc21 What is its recorded ΔTm at 100 µM?
Response line: 1.33

Prompt line: Quick one: ΔTm at 100 µM for NC(=O)c1ccc2c(c1)nc(-c1ccccc1C(=O)O)n2CCn1c(-c2ccccc2C(=O)O)nc2cc(C(N)=O)ccc21 ?
Response line: -6.94

Prompt line: Reported ΔTm at 100 µM, compound COc1c(C(N)=O)ccc2c1nc(-c1ccc(Cl)cc1C(=O)O)n2CCn1c(-c2ccc(Cl)cc2C(=O)O)nc2c(OC)c(C(N)=O)ccc21 : ____
Response line: 5.07

P. COc1c(C(N)=O)ccc2c1nc(-c1ccc(C(F)(F)F)cc1C(=O)O)n2CCn1c(-c2ccc(C(F)(F)F)cc2C(=O)O)nc2c(OC)c(C(N)=O)ccc21
Q. COc1c(C(N)=O)ccc2c1nc(-c1ccc(Cl)cc1-c1n[nH]c(=O)o1)n2CCn1c(-c2ccc(Cl)cc2-c2n[nH]c(=O)o2)nc2c(OC)c(C(N)=O)ccc21
Prompt line: Hi, I'm comparing P with Q and wondering which one has the bigger number for ΔTm at 100 µM. Any idea? Give the label of your selection.
Response line: Q
(Q: 3.05 °C, P: 0.38 °C)
